Values compiled from patent US20260130395A1.

- PROTOCOL: Stability of cannabinoid entourage and Vitamin E components of the powder concentrate by LCMSMS
- Format: physicochemical
- SETTINGS: powder stored at 21-25° C.; 420 days
Entries and their Stability of Plant-Derived Cannabinoid Compounds in Powder Concentrate
READOUT LABEL: Stability of Plant-Derived Cannabinoid Compounds in Powder Concentrate (mg/g powder)

> print(dat)
                                   molecule  test.result
1  CCCCCc1cc(O)c2c(c1)OC(C)(C)[C@@H]1CCC(C)=C[C@@H]21 [D9 THC, delta-9-tetrahydrocannabinol, reference compound]         2.53
2  CCCCCc1cc(O)c2c(c1)OC(C)(CCC=C(C)C)C=C2 (stereo not drawn)        0.069
3  C=C(C)[C@@H]1CCC(C)=C[C@H]1c1c(O)cc(CCCCC)cc1O [CBD, cannabidiol, reference compound]         5.94
4  C=C(C)[C@@H]1CCC(C)=C[C@H]1c1c(O)cc(CCC)cc1O        0.051
5  CCCCCc1cc(O)c2c(c1)OC1(C)CCC3C1C2C3(C)C (stereo not drawn)        0.050
6  CCCCCc1cc2c(c(O)c1C(=O)O)[C@@H]1C=C(C)CC[C@H]1C(C)(C)O2 [D9 THCA, delta-9-tetrahydrocannabinolic acid]        0.154

====

- PROTOCOL: Stability of cannabinoid entourage and Vitamin E components of the powder concentrate by LCMSMS
- Type: physicochemical
- SETTINGS: powder stored at 21-25° C.; 240 days
Entries and their Stability of Plant-Derived Cannabinoid Compounds in Powder Concentrate
READOUT LABEL: Stability of Plant-Derived Cannabinoid Compounds in Powder Concentrate (mg/g powder)

> print(dat)
                                   compound  unit.of.measure  test.result
1  CCCCCc1cc(O)c2c(c1)OC1(C)CCC3C1C2C3(C)C (stereo not drawn)      mg/g powder        0.049
2  CCCCCc1cc(O)c2c(c1)OC(C)(CCC=C(C)C)C=C2 (stereo not drawn)      mg/g powder        0.068
3  CCCCCc1cc(O)c2c(c1)OC(C)(C)[C@@H]1CCC(C)=C[C@@H]21 [D9 THC, delta-9-tetrahydrocannabinol, reference compound]      mg/g powder         2.53

====

- PROTOCOL: Stability of cannabinoid compounds and Vitamin E components in Beverage 1 (AB White) by LCMSMS
- Assay type: physicochemical
- SETTINGS: AB White stored at 8° C.; 1 days
READOUT LABEL: Stability of Plant-Derived Cannabinoid Compounds in AB White, 8° C. (µg/mL)

> print(dat)
                                   compound  test.result
1  CCCCCc1cc(O)c2c(c1)OC(C)(C)c1ccc(C)cc1-2         2.77
2  C=C(C)[C@@H]1CCC(C)=C[C@H]1c1c(O)cc(CCC)cc1O        0.146
3   CCCCCc1cc(O)c(C/C=C(\C)CCC=C(C)C)c(O)c1         4.74
4  C=C(C)[C@@H]1CCC(C)=C[C@H]1c1c(O)cc(CCCCC)cc1O [CBD, cannabidiol, reference compound]        27.65
5  CCCCCc1cc2c(c(O)c1C(=O)O)[C@@H]1C=C(C)CC[C@H]1C(C)(C)O2 [D9 THCA, delta-9-tetrahydrocannabinolic acid]        0.956
6  C=C(C)[C@@H]1CCC(C)=C[C@H]1c1c(O)cc(CCCCC)c(C(=O)O)c1O         1.72
7  CCCCCc1cc(O)c2c(c1)OC(C)(C)[C@@H]1CCC(C)=C[C@@H]21 [D9 THC, delta-9-tetrahydrocannabinol, reference compound]        12.20

====

- PROTOCOL: Stability of cannabinoid compounds and Vitamin E components in Beverage 1 (AB White) by LCMSMS
- Assay type: physicochemical
- SETTINGS: AB White stored at 8° C.; 18 days
READOUT LABEL: Stability of Plant-Derived Cannabinoid Compounds in AB White, 8° C. (µg/mL)

> print(dat)
                                   molecule  test.result
1  CCCCCc1cc(O)c2c(c1)OC(C)(C)c1ccc(C)cc1-2         2.71
2  CCCc1cc(O)c2c(c1)OC(C)(C)[C@@H]1CCC(C)=C[C@@H]21 [THCV, delta-9-tetrahydrocannabivarin]         3.59
3  CCCCCc1cc(O)c2c(c1)OC(C)(CCC=C(C)C)C=C2 (stereo not drawn)        0.312

====

- PROTOCOL: Stability of cannabinoid compounds and Vitamin E components in Beverage 1 (AB White) by LCMSMS
- Assay type: physicochemical
- SETTINGS: AB White stored at 21-25° C.; 1 days
Entries and their Stability of Plant-Derived Cannabinoid Compounds in AB White, 21-25° C.
READOUT LABEL: Stability of Plant-Derived Cannabinoid Compounds in AB White, 21-25° C.

> print(dat)
                                   molecule  test.result
1  CCCCCc1cc(O)c2c(c1)OC(C)(CCC=C(C)C)C=C2 (stereo not drawn)  0.313 µg/mL
2  CCCCCc1cc(O)c2c(c1)OC(C)(C)c1ccc(C)cc1-2   2.79 µg/mL
3   CCCCCc1cc(O)c(C/C=C(\C)CCC=C(C)C)c(O)c1   4.73 µg/mL
4  CCCCCc1cc2c(c(O)c1C(=O)O)[C@@H]1C=C(C)CC[C@H]1C(C)(C)O2 [D9 THCA, delta-9-tetrahydrocannabinolic acid]  0.960 µg/mL
5  CCCCCc1cc(O)c2c(c1)OC(C)(C)[C@@H]1CCC(C)=C[C@@H]21 [D9 THC, delta-9-tetrahydrocannabinol, reference compound]   11.8 µg/mL
6  CCCc1cc(O)c2c(c1)OC(C)(C)[C@@H]1CCC(C)=C[C@@H]21 [THCV, delta-9-tetrahydrocannabivarin]   3.48 µg/mL
7  C=C(C)[C@@H]1CCC(C)=C[C@H]1c1c(O)cc(CCCCC)c(C(=O)O)c1O   1.76 µg/mL
8  C=C(C)[C@@H]1CCC(C)=C[C@H]1c1c(O)cc(CCC)cc1O  0.149 µg/mL
9  CCCCCc1cc(O)c2c(c1)OC1(C)CCC3C1C2C3(C)C (stereo not drawn)  0.539 µg/mL

====

- PROTOCOL: Stability of cannabinoid compounds and Vitamin E components in Beverage 1 (AB White) by LCMSMS
- Format: physicochemical
- SETTINGS: AB White stored at 8° C.; 570 days
The label is Y for Stability of Plant-Derived Cannabinoid Compounds in AB White, 8° C. below 0.5 µg/mL and N for Stability of Plant-Derived Cannabinoid Compounds in AB White, 8° C. equal to or exceeding 0.5 µg/mL.

> print(dat)
                                   compound  category.label
1  CCCCCc1cc(O)c2c(c1)OC(C)(C)c1ccc(C)cc1-2 [CBN, cannabinol]               N
2  CCCCCc1cc(O)c2c(c1)OC(C)(C)[C@@H]1CCC(C)=C[C@@H]21 [D9 THC, delta-9-tetrahydrocannabinol, reference compound]               N
3  CCCCCc1cc(O)c2c(c1)OC(C)(CCC=C(C)C)C=C2 (stereo not shown) [CBC, cannabichromene]               Y
4  CCCc1cc(O)c2c(c1)OC(C)(C)[C@@H]1CCC(C)=C[C@@H]21 [THCV, delta-9-tetrahydrocannabivarin]               N
5  C=C(C)[C@@H]1CCC(C)=C[C@H]1c1c(O)cc(CCCCC)cc1O [CBD, cannabidiol, reference compound]               N
6  C=C(C)[C@@H]1CCC(C)=C[C@H]1c1c(O)cc(CCC)cc1O [CBDV, cannabidivarin]               Y

====

- PROTOCOL: Stability of cannabinoid compounds and Vitamin E components in Beverage 2 (AB Red) by LCMSMS
- Type: physicochemical
- SETTINGS: stored at 21-25° C., 16 days
Entries and their Stability of Plant-Derived Cannabinoid Compounds in AB Red
READOUT LABEL: Stability of Plant-Derived Cannabinoid Compounds in AB Red (µg/mL)

> print(dat)
                                   compound  unit.of.measure  test.result
1  C=C(C)[C@@H]1CCC(C)=C[C@H]1c1c(O)cc(CCCCC)c(C(=O)O)c1O            µg/mL         1.67
2  CCCCCc1cc(O)c2c(c1)OC(C)(C)[C@@H]1CCC(C)=C[C@@H]21 [D9 THC, delta-9-tetrahydrocannabinol, reference compound]            µg/mL         12.4
3  CCCCCc1cc2c(c(O)c1C(=O)O)[C@@H]1C=C(C)CC[C@H]1C(C)(C)O2 [D9 THCA, delta-9-tetrahydrocannabinolic acid]            µg/mL         1.36
4  CCCCCc1cc(O)c2c(c1)OC(C)(C)c1ccc(C)cc1-2            µg/mL         2.81
5  CCCCCc1cc(O)c2c(c1)OC(C)(CCC=C(C)C)C=C2 (stereo not drawn)            µg/mL         0.28
6  CCCc1cc(O)c2c(c1)OC(C)(C)[C@@H]1CCC(C)=C[C@@H]21 [THCV, delta-9-tetrahydrocannabivarin]            µg/mL         3.20
7   CCCCCc1cc(O)c(C/C=C(\C)CCC=C(C)C)c(O)c1            µg/mL         4.75
8  C=C(C)[C@@H]1CCC(C)=C[C@H]1c1c(O)cc(CCC)cc1O            µg/mL         0.19
9  CCCCCc1cc(O)c2c(c1)OC1(C)CCC3C1C2C3(C)C (stereo not drawn)            µg/mL         0.51
